biological target: Mas-related G-protein coupled receptor member X1 (Homo sapiens) (UniProt Q96LB2); test: blockade of BAM8-22-evoked MrgX1 calcium response – HEK293 cells, Fluo-4 calcium flux, primary screen (AID 588676); conditions: Fluo-4, BAM8-22 antagonism, at 10 µM
Sequence (Q96LB2 whole entry, looked up): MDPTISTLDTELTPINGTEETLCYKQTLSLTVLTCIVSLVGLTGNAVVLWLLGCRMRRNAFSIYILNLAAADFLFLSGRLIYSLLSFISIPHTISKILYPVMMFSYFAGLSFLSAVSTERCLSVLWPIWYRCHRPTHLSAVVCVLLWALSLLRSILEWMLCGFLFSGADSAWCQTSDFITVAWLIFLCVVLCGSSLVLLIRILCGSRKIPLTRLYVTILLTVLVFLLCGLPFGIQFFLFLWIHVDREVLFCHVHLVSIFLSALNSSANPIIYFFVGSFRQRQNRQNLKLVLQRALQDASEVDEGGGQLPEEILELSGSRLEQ
Hit rate of the full screen: of about 310,000 compounds, about 3,900 (1.3%) were called active.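 How the source made its calls: active means calcium-response B-score plate-corrected more than 3 library SD below zero, starting fluorescence within 5 deviations, no agonist response on first addition; inactive means the rest.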 The list comes from a sample in which actives are over-represented; it also holds close analogues and randomly drawn compounds.
Outcomes: true (1) for active, false (0) for inactive

> print(dat)
                                    compound      class
 1  COc1cccc2sc(N(CCCN(C)C)C(=O)CCS(=O)(=O)c3ccccc3)nc12  false (0)
 2  CCOc1ccccc1NC(=O)CCN1CCN(S(=O)(=O)c2ccc(OC)cc2)CC1   true (1)
 3      O=C(O)CN1CCN(C(c2ccccc2)c2ccccc2)CC1  false (0)
 4  O=[N+]([O-])c1ccc(N2CCN(S(=O)(=O)c3ccccc3)CC2)cc1N1CCc2ccccc2C1  false (0)
 5   CCOC(=O)N1CCN(S(=O)(=O)c2ccc(OC)cc2)CC1  false (0)
 6  COc1ccc(NC(=O)CCC(=O)N2CCN(S(=O)(=O)c3ccc(C)cc3)CC2)c(OC)c1  false (0)
 7  Cn1nccc1C(=O)NC1CCCc2c1cnn2-c1ccccc1F (configuration not stated)  false (0)
 8  O=C(NC1CCCCC1)C1c2ccccc2C(=O)N1Cc1ccco1 (configuration not stated)   true (1)
 9             CCOC(=O)c1cn(Cc2cccc(C)c2)nn1   true (1)
10  C=CC[n+]1c(-c2ccc(C)cc2)csc1NNC(=O)Nc1ccccc1  false (0)
11         O=C(CN1CCN(c2ccccn2)CC1)NC1CCCCC1   true (1)
12  CCN(CC)c1ccc(C2C3CCCCC3(O)CCN2CC(=O)Nc2ccccc2)cc1 (configuration not stated)   true (1)
13  C=CCOc1cccc(C2C(C(=O)c3ccc(C)o3)=C(O)C(=O)N2CCCn2ccnc2)c1 (configuration not stated)  false (0)
14  Cc1c(NC(=O)CCC2CCCCC2)cc(C(=O)N2CCOCC2)cc1[N+](=O)[O-]  false (0)
15  CCN(CC)c1ccc(NC(=O)CN2CCN(c3ccccn3)CC2)cc1  false (0)
16                CC1(C)CC(=O)C=C(N2CCCC2)C1  false (0)
17         O=C(CN1CCN(c2ccccn2)CC1)NCc1cccs1  false (0)
18  Cc1cc(NC(=O)/C=C/C(=O)N(c2ccccc2C)C(C(=O)NC2CCCC2)c2ccc(F)cc2)no1 (configuration not stated)  false (0)
19  Cc1cc(C(=O)NC2CCCc3c2cnn3-c2cccc(C)c2C)c(C)o1 (configuration not stated)  false (0)
20   CCOC(=O)c1cn(CC(=O)Nc2ccc(C(C)C)cc2)nn1  false (0)
21  COc1cc2ccccc2cc1C(=O)N(CCN(C)C)c1nc2c(F)cccc2s1  false (0)
22        Cc1c(-c2ccccc2)cn2c1-c1ccc(C)n1CC2  false (0)

* * *

biological target: Mas-related G-protein coupled receptor member X1 (Homo sapiens); test: blockade of BAM8-22-evoked MrgX1 calcium response – HEK293 cells, Fluo-4 calcium flux, primary screen (AID 588676); details: Fluo-4, BAM8-22 antagonism, at 10 µM; active compounds read low;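 on B-score: peak minus trough fluorescence over baseline after final BAM8-22 challenge near maximal dose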
Among all 310,000 compounds or so, about 3,900 (1.3%) were called active. The full list was thinned out, with actives kept by preference.
recorded metric: B-score

> print(dat)
                                    compound                              assay.target          result
 1  CN(C)c1cccc(C(=O)N2CCC(n3nccc3NC(=O)C3CCOC3)CC2)c1 (stereo not drawn)  Mas-related G-protein coupled receptor member X1 (Homo sapiens)        inactive
 2  COc1ccc(NC(=S)Nc2ccc(S(N)(=O)=O)cc2)c(C)c1  Mas-related G-protein coupled receptor member X1 (Homo sapiens)        inactive
 3  CC1CCC(NC(=O)CN(C)S(=O)(=O)c2ccc3c(c2)c(=O)n(C)c(=O)n3C)CC1 (stereo not drawn)  Mas-related G-protein coupled receptor member X1 (Homo sapiens)        inactive
 4            Cc1cccc(Nc2nc(-c3ccccc3)cs2)n1  Mas-related G-protein coupled receptor member X1 (Homo sapiens)        inactive
 5  COc1ccc(N2CCN(CCCNC(=O)C3CCN(S(=O)(=O)N4CCOCC4)CC3)CC2)cc1  Mas-related G-protein coupled receptor member X1 (Homo sapiens)        inactive
 6  COc1ccc(N2CCN(C(=O)c3cn(C)c4ccc(S(=O)(=O)N5CCOCC5)cc4c3=O)CC2)cc1  Mas-related G-protein coupled receptor member X1 (Homo sapiens)        inactive
 7      Cc1ccc2cc3cc(C(=O)N4CCCCCC4)oc3nc2c1  Mas-related G-protein coupled receptor member X1 (Homo sapiens)        inactive
 8  Cc1ccccc1S(=O)(=O)N1[C@@H](c2cccc(Cl)c2)C(C(=O)O)=CC[C@H]1c1ccc(Cl)cc1  Mas-related G-protein coupled receptor member X1 (Homo sapiens)        inactive
 9  Cc1ccc([C@@H]2CC=C(C(=O)O)[C@H](c3cccc(Cl)c3)N2S(=O)(=O)c2ccc(C)cc2)cc1  Mas-related G-protein coupled receptor member X1 (Homo sapiens)        inactive
10           ON=C1/C(=N\O)CC2(C/C1=N/O)OCCO2  Mas-related G-protein coupled receptor member X1 (Homo sapiens)        inactive
11        Cc1ccc(Nc2nc(-c3ccc(O)cc3O)cs2)nc1  Mas-related G-protein coupled receptor member X1 (Homo sapiens)  -4.59 (active)
12  NS(=O)(=O)c1ccc(NC(=S)Nc2ccc(Br)c(Cl)c2)cc1  Mas-related G-protein coupled receptor member X1 (Homo sapiens)  -5.41 (active)
13  Cc1cnc(CN(C)C(=O)CC2C(=O)NCCN2Cc2cccc(F)c2F)[nH]1 (stereo not drawn)  Mas-related G-protein coupled receptor member X1 (Homo sapiens)        inactive
14       Cn1sc(=O)c2cc(S(=O)(=O)NC3CC3)ccc21  Mas-related G-protein coupled receptor member X1 (Homo sapiens)        inactive
15  COc1cc2c(C(=O)N3CCN(C)CC3)c(CSc3ccccc3)n(C)c2cc1Br  Mas-related G-protein coupled receptor member X1 (Homo sapiens)        inactive
16  COc1ccc(C(=O)NCc2nnc(SCCOc3ccccc3)n2C)cc1  Mas-related G-protein coupled receptor member X1 (Homo sapiens)  -8.04 (active)
17       O=C(COC(=O)c1cnccn1)Nc1cccc2ccccc12  Mas-related G-protein coupled receptor member X1 (Homo sapiens)        inactive
18  CCOC(=O)N1CCN(C(=O)c2cn(C)c3ccc(S(=O)(=O)N(CC)CC)cc3c2=O)CC1  Mas-related G-protein coupled receptor member X1 (Homo sapiens)        inactive
19  [O-][n+]1onc2c1CCc1[nH]c(-c3ccccc3)nc1-2  Mas-related G-protein coupled receptor member X1 (Homo sapiens)        inactive
20  NS(=O)(=O)c1ccc(CCNC(=S)Nc2ccc(S(N)(=O)=O)cc2)cc1  Mas-related G-protein coupled receptor member X1 (Homo sapiens)        inactive
21  O=C(NN1C(=O)C2C3C=CC(C3)C2C1=O)c1ccco1 (stereo not drawn)  Mas-related G-protein coupled receptor member X1 (Homo sapiens)  -9.57 (active)
22  CCOC(=O)C1C(=O)NC(N2CCN(c3ccccc3)CC2)=NC1c1ccco1 (stereo not drawn)  Mas-related G-protein coupled receptor member X1 (Homo sapiens)        inactive
23         CCNC(=O)c1c(O)c2cccc3c2n(c1=O)CC3  Mas-related G-protein coupled receptor member X1 (Homo sapiens)  -5.85 (active)
24  CCOC(=O)N1CCN(C(=O)c2cn(C)c3ccc(S(=O)(=O)N4CCCC4)cc3c2=O)CC1  Mas-related G-protein coupled receptor member X1 (Homo sapiens)  -6.83 (active)
25  Cc1ccc(-c2cn(S(=O)(=O)c3cccc([N+](=O)[O-])c3)nc2N)cc1  Mas-related G-protein coupled receptor member X1 (Homo sapiens)        inactive
26  CCOC(=O)C1C(=O)C=C(c2ccc(OC)cc2)CC1c1ccco1 (stereo not drawn)  Mas-related G-protein coupled receptor member X1 (Homo sapiens)  -5.76 (active)
27  O=C(N/N=C/c1ccco1)c1ccc(C(=O)N/N=C/c2ccco2)o1  Mas-related G-protein coupled receptor member X1 (Homo sapiens)        inactive
28  CCCCc1nc2ccccc2c(=O)n1NC(=O)c1c(O)c2cccc3c2n(c1=O)CC3  Mas-related G-protein coupled receptor member X1 (Homo sapiens)        inactive
29                CC(C)NC(=S)Nc1cccc2cnccc12  Mas-related G-protein coupled receptor member X1 (Homo sapiens)  -4.98 (active)
30      C/C(CC(=O)NC(C)(C)C)=N\NC(=O)c1ccco1  Mas-related G-protein coupled receptor member X1 (Homo sapiens)        inactive
31  O=C(CSc1nnc(-c2c[nH]c3ccccc23)n1-c1ccc(F)cc1)NCc1ccco1  Mas-related G-protein coupled receptor member X1 (Homo sapiens)        inactive
32                    N#CCC(=O)NC(=O)NCC1CC1  Mas-related G-protein coupled receptor member X1 (Homo sapiens)        inactive
33           S=C(NCc1ccco1)Nc1ccc2c(c1)OCCO2  Mas-related G-protein coupled receptor member X1 (Homo sapiens)        inactive
34  N#CC1=C(N)C(C#N)(C#N)[C@H](c2ccsc2)[C@H]2COCC=C12  Mas-related G-protein coupled receptor member X1 (Homo sapiens)        inactive
35  Cc1ccc(S(=O)(=O)N2[C@@H](c3cccc(Cl)c3)C(C(=O)O)=CC[C@H]2c2ccc(Cl)c(Cl)c2)cc1  Mas-related G-protein coupled receptor member X1 (Homo sapiens)  -6.18 (active)
36  O=C(C1=C[C@H](C2CC2)C[C@H](OCc2ccc(CO)cc2)O1)N1CCN(Cc2ccccc2)CC1  Mas-related G-protein coupled receptor member X1 (Homo sapiens)        inactive
37  N#Cc1cccc(CN2CCC(=O)N([C@H](CO)c3ccccc3)CC2)c1  Mas-related G-protein coupled receptor member X1 (Homo sapiens)        inactive
38  CN(c1ccccc1)S(=O)(=O)c1ccc(Cl)c(C(=O)OCC(=O)N2CCOCC2)c1  Mas-related G-protein coupled receptor member X1 (Homo sapiens)        inactive
39         COc1cc(NC(=S)NCc2ccco2)c(OC)cc1Cl  Mas-related G-protein coupled receptor member X1 (Homo sapiens)        inactive
40  COc1ccc(-c2cc(C(F)(F)F)nc(S(C)(=O)=O)n2)cc1OC  Mas-related G-protein coupled receptor member X1 (Homo sapiens)        inactive
41  CCOC(=O)Cn1c(O)c(N=NC(=O)CNC(=O)Cc2ccccc2)c2ccccc21  Mas-related G-protein coupled receptor member X1 (Homo sapiens)        inactive
42  Cc1ccc(C(=O)C(C)OC(=O)Cc2n[nH]c(=O)c3ccccc23)cc1C (stereo not drawn)  Mas-related G-protein coupled receptor member X1 (Homo sapiens)        inactive
43            Clc1ccc(Nc2nc(-c3cccs3)cs2)nc1  Mas-related G-protein coupled receptor member X1 (Homo sapiens)        inactive
